- Test system: Matricaria inodora
- assay text: Pre-emergence herbicidal effect
- Type: in vivo
- stated conditions: Dosage 80 g/ha, scored visually after 3 weeks
This section presents compounds with their documented MATIN pre-emergence efficacy (herbicidal activity) values.
Field: numeric (%). Do not append units.

Cc1cc2c(s1)CCCC2Nc1nc(N)c([S+](C)[O-])c(C(F)F)n1 (racemic)
90
Cc1cc2c(s1)CCC2Nc1ncc(S(C)(=O)=O)c(N)n1 (racemic)
100
CS(=O)(=O)c1cnc(NC2CCCc3cc(Cl)sc32)nc1N (racemic)
100
Cc1cc2c(s1)CCCC2Nc1ncc2c(n1)CCCC2=O (racemic)
100
Cc1cc2c(s1)CCCC2Nc1nc(N)c([S+](C)[O-])c(Cl)n1 (racemic)
100
CC(=NO)c1cnc(NC2CCCc3sc(C)cc32)nc1N (stereo not drawn) [compound 286]
80

Input: What is its MATIN pre-emergence efficacy (herbicidal activity) for Matricaria inodora? Entry: C=C(c1cnc(NC2CCCc3sc(C)cc32)nc1N)C(F)(F)F (racemic)
Output: 90

Input: Now the compound Cc1cc2c(s1)CCCC2Nc1nc(N)c(S(C)(=O)=O)c(C(F)F)n1 (racemic)
Output: 100

Input: Now the compound Nc1nc(NC2CCCc3sccc32)ncc1C(F)(F)F (racemic)
Output: 100

Input: Now the compound Nc1nc(N[C@@H]2CCCc3sccc32)ncc1C(F)(F)F
Output: 100

Input: Now the compound Cc1cc2c(o1)CCCC2Nc1ncc(C(F)(F)F)c(N)n1 (racemic)
Output: 90

Input: Now the compound C/C(=N\OC(C)C)c1cnc(NC2CCCc3sc(C)cc32)nc1N (racemic)
Output: 100

Input: Now the compound CCOC(=O)c1cnc(NC2CCCc3sc(C)cc32)nc1C (racemic)
Output: 90

Input: Now the compound C/C(=N/OCc1ccccc1)c1cnc(NC2CCCc3sc(C)cc32)nc1N (racemic)
Output: 100

Input: Now the compound Cc1cc2c(s1)CCCC2Nc1ncc(SC(F)(F)F)c(C)n1 (racemic)
Output: 70

Input: Now the compound Cc1cc2c(s1)CCCC2Nc1ncc(C#N)c(N)n1 (stereo not drawn) [compound 282]
Output: 100

Input: Now the compound Cc1cc2c(s1)CCC[C@H]2Nc1ncc(C(F)(F)F)c(N)n1
Output: 100

Input: Now the compound Cc1cc2c(s1)CCCC2Nc1ncc(C(F)(F)F)c(N)n1 (racemic) [compound 11]
Output: 100
